Source listed as ChEMBL document CHEMBL1275449.

Tested on: Candida albicans
EXPERIMENT: Antifungal activity against Fluconazole resistant Candida albicans clinical isolate 1 after 48 hrs by CLSI method
Format: functional, organism-based
READOUT TYPE: MIC (µM)
Note: unit µM is implicit; provide only the numeric part.

Solved cases below.
C[C@@H]1[C@H](O)[C@@H](C)/C=C/C=C/C=C/C=C/C=C/C=C/C=C/[C@H](O[C@@H]2O[C@H](C)[C@@H](O)[C@H](N)[C@@H]2O)C[C@@H]2O[C@](O)(C[C@@H](O)C[C@@H](O)[C@H](O)CC[C@@H](O)C[C@@H](O)CC(=O)O[C@H]1C)C[C@H](O)[C@H]2C(=O)O [AMPHOTERICIN B]    1
CC[C@H](C)C[C@H](C)CCCCCCCCC(=O)N[C@H]1C[C@@H](O)[C@@H](NCCN)NC(=O)[C@@H]2[C@@H](O)CCN2C(=O)[C@H]([C@H](O)CCN)NC(=O)[C@H]([C@H](O)[C@@H](O)c2ccc(O)cc2)NC(=O)[C@@H]2C[C@@H](O)CN2C(=O)[C@H]([C@@H](C)O)NC1=O [CASPOFUNGIN]    0.1
OC(Cn1cncn1)(Cn1cncn1)c1ccc(F)cc1F [FLUCONAZOLE]    5.1
CC(=O)N1CCN(c2ccc(OCC3COC(Cn4ccnc4)(c4ccc(Cl)cc4Cl)O3)cc2)CC1 (stereo not given) [KETOCONAZOLE]    0.1

Next:
Qu. Please report the measured MIC for CCCCCCCCCCCC#CCCCCC(=O)O [6-OCTADECYNOIC ACID]
Ans. 13.9
